Biological target: Prostaglandin G/H synthase 1 (Homo sapiens)
Sequence (P23219 whole entry): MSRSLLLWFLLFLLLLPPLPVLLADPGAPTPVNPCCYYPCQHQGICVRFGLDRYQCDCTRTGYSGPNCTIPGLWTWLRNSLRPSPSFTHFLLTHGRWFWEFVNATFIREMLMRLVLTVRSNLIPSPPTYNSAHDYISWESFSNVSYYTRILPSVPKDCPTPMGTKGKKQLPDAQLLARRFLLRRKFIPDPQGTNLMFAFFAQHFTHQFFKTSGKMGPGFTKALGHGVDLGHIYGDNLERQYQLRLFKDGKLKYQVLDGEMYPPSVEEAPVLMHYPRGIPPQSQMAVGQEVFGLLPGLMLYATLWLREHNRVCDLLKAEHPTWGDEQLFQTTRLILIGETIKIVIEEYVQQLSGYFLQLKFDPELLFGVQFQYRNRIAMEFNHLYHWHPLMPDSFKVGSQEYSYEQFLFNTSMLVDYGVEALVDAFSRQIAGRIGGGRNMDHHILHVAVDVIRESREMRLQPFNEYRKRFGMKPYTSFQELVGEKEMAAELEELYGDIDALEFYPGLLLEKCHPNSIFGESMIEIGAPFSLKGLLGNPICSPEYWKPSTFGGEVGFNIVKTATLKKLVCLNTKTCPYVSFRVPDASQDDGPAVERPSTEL
pIC50: −log10 of the molar value.
quantity.name: pIC50

1. CC(C)OC(=O)[C@@H](Cn1cncn1)NC(=O)[C@@H](C)c1cccc(C(=O)c2ccccc2)c1 : < 4.30
2. CC(C)NC(=O)[C@@H](Cn1ccnc1)NC(=O)[C@@H](C)c1cccc(C(=O)c2ccccc2)c1 : < 4.30
3. COc1ccc2cc([C@H](C)C(=O)NC(Cn3cncn3)C(=O)c3ccccc3)ccc2c1 (stereo partly drawn) : < 4.30

====

The reader will find reported IC50 values listed item by item below.
Target: Lanosterol 14-alpha demethylase (Candida albicans (strain SC5314 / ATCC MYA-2876) (Yeast), UniProt P10613)
Sequence (P10613 whole entry): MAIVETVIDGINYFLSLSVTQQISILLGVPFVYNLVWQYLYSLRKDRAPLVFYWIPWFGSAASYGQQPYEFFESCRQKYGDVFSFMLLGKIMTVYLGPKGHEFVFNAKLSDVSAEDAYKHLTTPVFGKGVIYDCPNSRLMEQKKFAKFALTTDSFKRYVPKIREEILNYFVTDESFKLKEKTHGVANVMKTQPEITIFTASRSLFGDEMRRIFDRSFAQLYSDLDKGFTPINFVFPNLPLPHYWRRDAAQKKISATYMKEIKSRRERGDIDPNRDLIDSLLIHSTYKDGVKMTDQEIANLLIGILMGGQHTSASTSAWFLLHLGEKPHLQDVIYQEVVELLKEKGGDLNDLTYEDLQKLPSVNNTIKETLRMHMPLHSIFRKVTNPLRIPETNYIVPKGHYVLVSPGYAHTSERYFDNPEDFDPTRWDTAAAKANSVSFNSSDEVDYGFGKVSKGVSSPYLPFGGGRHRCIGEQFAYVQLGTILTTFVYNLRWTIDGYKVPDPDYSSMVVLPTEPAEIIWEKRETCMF
Assay: Inhibition of CYP51 in Candida albicans SC5314 using Eburicol as substrate preincubated for 20 mins followed by substrate addition and measured after 4 mins by HPLC analysis
quantity.name: IC50 (nM)

1. CC(C)OC(=O)[C@@H](Cn1cncn1)NC(=O)[C@@H](C)c1cccc(C(=O)c2ccccc2)c1 : 200
2. OC(Cn1cncn1)(Cn1cncn1)c1ccc(F)cc1F [FLUCONAZOLE] : 140
3. CC(C)NC(=O)[C@@H](Cn1ccnc1)NC(=O)[C@@H](C)c1cccc(C(=O)c2ccccc2)c1 : 150
4. COc1ccc2cc([C@H](C)C(=O)NC(Cn3cncn3)C(=O)c3ccccc3)ccc2c1 (some centres undefined) : 80

====

Test system: Cryptococcus neoformans
Assay: Antifungal activity against Cryptococcus neoformans ZKCC 2209 assessed as fungal growth inhibition measured after 72 hrs by double dilution method
Format: functional
quantity.name: MIC50 (µg/mL)

1) COC(=O)[C@@H](Cn1cncn1)NC(=O)[C@@H](C)c1ccc(-c2ccccc2)c(F)c1 : 2
2) CC(C)OC(=O)[C@@H](Cn1ccnc1)NC(=O)[C@@H](C)c1cccc(C(=O)c2ccccc2)c1 : 1
3) C[C@H](C(=O)NC(Cn1ccnc1)C(=O)c1ccccc1)c1ccc(-c2ccccc2)c(F)c1 (some centres undefined) : 0.5
4) C[C@H](C(=O)N[C@H](Cn1ccnc1)C(=O)NC1CCCCC1)c1ccc(-c2ccccc2)c(F)c1 : 4
5) COC(=O)[C@@H](Cn1ccnc1)NC(=O)[C@@H](C)c1ccc(-c2ccccc2)c(F)c1 : 0.5
6) COc1ccc2cc([C@H](C)C(=O)N[C@H](Cn3ccnc3)C(=O)OC(C)C)ccc2c1 : 0.5
7) COc1ccc2cc([C@H](C)C(=O)NC(Cn3cncn3)C(=O)c3ccccc3)ccc2c1 (some centres undefined) : 0.125
8) CC(=O)N1CCN(c2ccc(OCC3COC(Cn4ccnc4)(c4ccc(Cl)cc4Cl)O3)cc2)CC1 (centres undefined) : 1
9) COc1ccc2cc([C@H](C)C(=O)NC(Cn3ccnc3)C(=O)c3ccccc3)ccc2c1 (some centres undefined) : 0.5

====

Tested on: Cryptococcus neoformans
Test: Antifungal activity against Cryptococcus neoformans ZKCC 2209 assessed as fungal growth inhibition measured after 72 hrs by double dilution method
Type: functional
quantity.name: MIC50 (µg/mL)

1. COC(=O)[C@@H](Cn1cncn1)NC(=O)[C@@H](C)c1cccc(C(=O)c2ccccc2)c1 : 1
2. C[C@H](C(=O)N[C@H](Cn1ccnc1)C(=O)NC1CCCCC1)c1cccc(C(=O)c2ccccc2)c1 : 0.5
3. COc1ccc2cc([C@H](C)C(=O)N[C@H](Cn3cncn3)C(=O)OC(C)C)ccc2c1 : 0.5
4. C[C@H](C(=O)NC(Cn1ccnc1)C(=O)c1ccccc1)c1cccc(C(=O)c2ccccc2)c1 (stereo not given in full) : 1
5. CC(C)OC(=O)[C@@H](Cn1ccnc1)NC(=O)[C@@H](C)c1ccc(-c2ccccc2)c(F)c1 : 0.25
